Target: PfCSP full length (Plasmodium falciparum (isolate NF54), UniProt P19597)
Sequence (P19597 20-375): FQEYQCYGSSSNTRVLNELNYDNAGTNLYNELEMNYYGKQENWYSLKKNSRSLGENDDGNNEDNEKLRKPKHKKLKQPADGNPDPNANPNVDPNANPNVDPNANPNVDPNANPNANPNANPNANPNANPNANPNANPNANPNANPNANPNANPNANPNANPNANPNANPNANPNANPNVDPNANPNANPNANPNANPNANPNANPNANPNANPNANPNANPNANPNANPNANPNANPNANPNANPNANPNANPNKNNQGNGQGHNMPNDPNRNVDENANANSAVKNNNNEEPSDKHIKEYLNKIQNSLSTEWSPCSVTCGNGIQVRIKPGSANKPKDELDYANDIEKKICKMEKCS
Assay: ELISA AUC
Metric Name: binding score
Give the figure only, with no unit attached.

// below: answered binders
>>> value_measured("CL-444653 (antibody, V domains shown, peptides N-terminally acetylated and C-terminally amidated) VH: QVQLVESGGGVVQPGRSLRLSCTASGFTFSTYGMHWVRQAPGKGLEWVAIIWYDGGNKFYADSVKGRFTISRDNSKDTLYLQMNSLRAEDTAVYYCAKAWYKVDDKYSMDVWGQGTTVTVSS VL: DIQMTQSPSTLSASVGDRVTITCRASQSISSWLAWYQQKPGKAPKLLIYKASSLESGVPSRFSGSGSGTEFTLTISGLQPDDFATYYCQQYINYWTFGQGTKVEIK")
2.3
>>> value_measured("Ky15.7 (antibody, V domains shown, peptides N-terminally acetylated and C-terminally amidated) VH: QVQVVESGGGAVQPGRSLRLSCAASGFTFSNRGMHWVRQTPGKGLEWVAIIWYDGGNKFYADSVKGRFTISRDNSKNTLYLQMNSLRDEDTAVYYCVRAGDWKADKYTMDVWGQGTTVTVSS VL: DIQMTQSPSTLSASVGDRVTITCRASQSISSWLAWYQQKPGKAPKVLIYQASSLESGVPSRFSGSGSGTEFTLTISSLQPDDFATYYCQQYNSYWTFGQGTKVEIK")
2.3

-- ask Recorded binding score for CL-511776 (antibody, V domains shown, peptides N-terminally acetylated and C-terminally amidated) VH: QVQLVESGGGVVQPGRSLTLSCAASGFTFSNFGMHWVRQAPGKGLEWMAVIWYDGNNEFYADSVKGRFTISRDNSKNMLYLHMNSLRAEDTAIYYCAREGDYSASGSHWLFDPWGQGTQVTVSS VL: DIQMTQSPSTLSASVGDSITITCRASQSINIWLAWYQQKPGKAPNLLIYKASSLESGVPSRFSGSGSGTEFTLTINSLQPDDFATYYCQQYNNYVTFGGGTKVEIK , please?
-- reply 2.14
